Source of measurements: PubChem BioAssay AID590

assay: qHTS Assay for Spectroscopic Profiling in A350 Spectral Region; settings: Compound autofluorescence, 340/450 nm, Alexa 350 dye-equivalents
In all, about 59,000 compounds went through this assay and about 6,500 (11%) were called active. Another 15% or so got no clear call; they are omitted. Cut-off read from the data, not from the text of the source: active = max dye-equivalent concentration above about 10 nM; inconclusive = mostly about 1.1 nM to 9.6 nM; inactive = weaker than that. The sample as a whole holds a higher share of actives than the screen did.
Possible outcomes: active, inactive

Compound: C(=C\c1ccccc1)/CSc1nnc(-c2cccnc2)n1Cc1ccco1
Group: inactive

Compound: CN1CCc2[nH]nc(-c3n[nH]c4c3CN(C)CC4)c2C1
Group: inactive

Compound: COc1ccc(CCNC(=O)CSc2nc(C)nc3c2oc2ccccc23)cc1OC
Group: inactive

Compound: COc1ccccc1Nc1ncc(C(C)=O)c(C)n1
Group: inactive

Compound: CC(C)Cn1c(CCC(=O)O)ccc1-c1cccs1
Group: active

Compound: CCn1c(CNc2ccc(OC)cc2)nnc1SCC(=O)c1ccc(OC)cc1
Group: inactive

Compound: O=c1ccn(Cc2ccccc2Cl)cc1
Group: inactive

Compound: COC(=O)c1cc(Cl)c(NC(=O)c2ccco2)cc1OC
Group: inactive

Compound: CCC(C)(C)n1nnnc1C(c1cccs1)N1CCN(Cc2ccccc2)CC1 (stereo not given)
Group: inactive

Compound: Cn1c(NC(=O)c2ccco2)c(-c2ccccc2Cl)c(=O)c2ccccc21
Group: inactive

Compound: NC(=O)C1(N2CCCCC2)CCN(C(=O)c2ccc(C#Cc3ccccc3)o2)CC1
Group: inactive

Compound: CCCC[C@H]1C(=O)N(c2ccccc2)N(c2ccc(O)cc2)C1=O
Group: inactive

Compound: O=C1c2ccccc2C(=O)N1CCCSc1ccccc1
Group: inactive

Compound: Cn1c(SCC(=O)c2cccs2)nnc1-c1ccco1
Group: inactive

Compound: C[N+](C)(CCCCCC[N+](C)(C)CCCN1C(=O)c2cccc3cccc(c23)C1=O)CCCN1C(=O)c2cccc3cccc(c23)C1=O
Group: active

Compound: Cc1cc(=O)[nH]c(SCC(=O)N2c3ccccc3CC2C)n1 (stereo not given)
Group: inactive

Compound: COc1ccc(C(=O)Cn2nnc(-c3ccc(N4CCOCC4)cc3)n2)cc1OC
Group: inactive

Compound: Cc1ccc(-n2nc3cc(Cl)c(NC(=O)c4ccco4)cc3n2)cc1
Group: active

Compound: COCCNc1ccnc(-c2cccc(NS(C)(=O)=O)c2)n1
Group: inactive

Compound: Cc1ccsc1C(C(=O)NC1CCCCC1)N(C(=O)Cc1cccs1)C1CC1 (stereo not given)
Group: inactive

Compound: O=C(CSc1nnc(-c2cccnc2)n1Cc1ccco1)c1ccc(Cl)cc1
Group: inactive

Compound: CCCCSc1nnc(-c2ccc(NC(=O)CC)cc2)n1C
Group: inactive

Compound: O=C(c1cccs1)N1CCC(c2nc3ccccc3s2)CC1
Group: inactive

Compound: COc1ccc(C(=O)N2CCC[C@@]3(CCN(C(=O)NC(C)C)C3)C2)cc1
Group: inactive

Compound: CCOC(=O)CCc1c(C)c2ccc(OCc3nn[nH]n3)c(C)c2oc1=O
Group: active

Compound: Cc1cc(NC(=O)c2cc(-c3cccs3)on2)nn1Cc1ccc(Cl)cc1
Group: inactive

Compound: Clc1ccc(C(c2ccc(Cl)cc2)n2cc[n+](C[C@@H](OCc3ccc(Cl)cc3Cl)c3ccc(Cl)cc3Cl)c2)cc1
Group: inactive

Compound: CCCc1nc(-c2ccccc2O)n(-c2ccccc2)n1
Group: inactive

Compound: COc1ccc(N2CCN(C3CC(=O)N(c4ccc5c(c4)OCCO5)C3=O)CC2)cc1 (stereo not given)
Group: inactive

Compound: CC(=O)c1cc(-c2ccccc2)[nH]c1N1CCCC1
Group: inactive

Compound: CC(C)CNC(=O)c1cc(-c2ccc(Br)cc2)on1
Group: inactive

Compound: N#Cc1c2c(c(N3CCN(CCO)CC3)n3c1nc1ccccc13)CCCC2
Group: active

Compound: CC(C)C1Cc2c(sc3c2c(=O)n(-c2ccccc2)c2nncn32)CO1 (stereo not given)
Group: inactive

Compound: COc1ccccc1-n1nnnc1S(=O)(=O)Cc1ccc(Cl)cc1
Group: inactive

Compound: CCOC(=O)N1CCN(C(=O)c2ccc(S(=O)(=O)c3ccc(C)cc3)c(NC(C)=O)c2)CC1
Group: inactive

Compound: O=C(OC1CCOC1=O)c1ccc(-c2nc3ccccc3s2)s1 (stereo not given)
Group: active

Compound: Cc1ccc(N2CCN(c3ccc(C)cc3)C2c2ccccn2)cc1
Group: inactive

Compound: COc1ccc(OC)c(NC(=O)CSc2nc3cccnc3n2C)c1
Group: inactive

Compound: O=C(O)c1ccc(C(=O)c2ccccc2C(=O)O)cc1C(=O)O
Group: inactive

Compound: COC(=O)c1ccc(Oc2nc(Nc3ccc(F)cc3)nc(N3CCCC3)n2)cc1
Group: inactive

Compound: Cc1ccc(Oc2nc3ccccc3n3c(C)nnc23)cc1
Group: inactive

Compound: O=C(O)[C@@H](O)Cc1ccccn1
Group: inactive

Compound: COc1ccccc1-c1nc(NCCNC(C)=O)c2ccccc2n1
Group: inactive

Compound: CCOC(=O)N1CCN(C(=O)c2ccc3nc4cc(Cl)ccc4c(=O)n3c2)CC1
Group: active

Compound: CCOC(=O)c1cccc(NC(=O)CCc2c(C)nc3ncnn3c2C)c1
Group: inactive
